Assignment: determine reported hemolysis at 1 h, 250 μg/mL for the given molecules.
TEST: in vitro
Assay type: cell-based, sheep
TEST SETTINGS: sheep
Answers are plain numbers, in %.

A selection of reference data follows.
>  <MOLECULE>
CCCCNC(=S)NNS(=O)(=O)c1ccccc1 [WZ2]

>  <hemolysis at 1 h, 250 μg/mL (%)>
8.95

$$$$
>  <MOLECULE>
CCCCCCNC(=S)NNS(=O)(=O)c1ccccc1 [WZ3]

>  <hemolysis at 1 h, 250 μg/mL (%)>
11.4

$$$$
>  <MOLECULE>
CNC(=S)NNS(=O)(=O)c1ccccc1 [WZ4]

>  <hemolysis at 1 h, 250 μg/mL (%)>
15.8

$$$$

Turning to the following molecule.
The molecule O=S(=O)(NNC(=S)NC1CCCCC1)c1ccccc1 [WZ1] showed hemolysis at 1 h, 250 μg/mL equal to 7.89
